# ASSAY_SYSTEM: Oseltamivir-sensitive A/Washington/01/2007 neuraminidase (Influenza A virus (H3N2), UniProt A7UPN3)
# PROTOCOL_DETAILS: biochemical
OUTCOME_MEASURE: IC50 (nM)
Number in nM, nothing else.

Q: Please report IC50 for the following compound: CC(=O)N[C@H]1[C@H]([C@H](O)[C@H](O)CO)OC(C(=O)O)=C[C@@H]1N=C(N)N [Zanamivir, zanamivir]
Result: 0.45

---

# ASSAY_SYSTEM: A/Anhui/1/2013 (E2/S1) virus isolate neuraminidase (Influenza A virus (A/Anhui/1/2013(H7N9)), UniProt A0A024E3Q2)
# Format: biochemical
# MEASUREMENT_SETUP: pH 5.1; read-out: IC50
OUTCOME_MEASURE: IC50 (pM)
Number in pM, nothing else.

Q: Please report IC50 for the following molecule: CCC(CC)[C@H](NC(C)=O)[C@@H]1[C@H](O)[C@@H](C(=O)O)C[C@H]1N=C(N)N [Peramivir, peramivir]
Result: 120
